Recorded measurements of log10 Kd, one per entry
# Target: T1, 1xMBD-GFP (UniProt Q9Z2E2 1-75)
# T1 sequence: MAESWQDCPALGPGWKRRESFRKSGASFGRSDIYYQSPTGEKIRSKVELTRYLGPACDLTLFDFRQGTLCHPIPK
# Test name: SPR
Measurement name: log10 Kd (log10 of the value in µM)

INSERT INTO measurements (binder, numeric_result) VALUES
  ('o_o_m_o/o_m_m_o (dsDNA, strand 1 5mC21; strand 2 5mC14,5mC17) DNA 1: GAAGTCAACAGGACGGACGCCGCGCAA DNA 2: CTCTTTCTTTGCGCGGCGTCCGTCCTGTTGACTTCCTCT', -0.80),
  ('m_o_o/m_m_m (dsDNA, strand 1 5mC5; strand 2 5mC5,5mC12,5mC17) DNA 1: TTTGCGGTCCGCTGCCCGACCC DNA 2: GGGTCGGGCAGCGGACCGCAAA', 0.34),
  ('o_m_o_o/o_o_m_m (dsDNA, strand 1 5mC18; strand 2 5mC12,5mC14) DNA 1: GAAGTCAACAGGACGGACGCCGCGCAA DNA 2: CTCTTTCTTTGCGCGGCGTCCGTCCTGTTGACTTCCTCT', 0.38),
  ('o_o_m_o/o_o_o_o (dsDNA, strand 1 5mC21) DNA 1: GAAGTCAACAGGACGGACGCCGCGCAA DNA 2: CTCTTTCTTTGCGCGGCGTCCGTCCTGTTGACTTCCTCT', 0.77),
  ('o_o_o/o_m_m (dsDNA, strand 2 5mC5,5mC12) DNA 1: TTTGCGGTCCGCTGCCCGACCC DNA 2: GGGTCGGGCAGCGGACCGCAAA', 0.63);

These measurements were taken from paper PMC2946844.
